Endpoint: Ki. System: UniProt:P10415. Items follow.
Sequence (P10415 whole entry): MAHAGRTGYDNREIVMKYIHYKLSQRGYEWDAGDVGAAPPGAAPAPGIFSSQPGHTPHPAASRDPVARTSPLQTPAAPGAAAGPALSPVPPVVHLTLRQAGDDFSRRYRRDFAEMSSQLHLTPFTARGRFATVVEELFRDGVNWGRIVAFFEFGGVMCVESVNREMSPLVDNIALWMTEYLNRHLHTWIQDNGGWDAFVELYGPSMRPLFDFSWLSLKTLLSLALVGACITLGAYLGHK

[
  {
    "test-smiles": "Cc1cccc(N2C(=O)/C(=C/c3ccc(OCc4ccc(C(=O)O)cc4)cc3)SC2=S)c1",
    "limit-operator": ">",
    "Ki, µM": 10
  },
  {
    "test-smiles": "Cc1cccc(C)c1N1C(=O)/C(=C/c2ccc(OCc3ccc(C(=O)O)cc3)cc2)SC1=S",
    "limit-operator": "=",
    "Ki, µM": 0.9
  },
  {
    "test-smiles": "Cc1ccccc1N1C(=O)/C(=C/c2ccc(OCC(=O)Nc3ccc(C(=O)O)cc3)cc2)SC1=S",
    "limit-operator": ">",
    "Ki, µM": 10
  },
  {
    "test-smiles": "O=C(O)c1ccc(COc2ccc(/C=C3\\SC(=S)N(c4ccc(F)cc4)C3=O)cc2)cc1",
    "limit-operator": ">",
    "Ki, µM": 10
  },
  {
    "test-smiles": "Cc1cccc(C)c1N1C(=O)/C(=C/c2ccc(OCC(=O)Nc3ccc(C(=O)O)cc3)cc2)SC1=S",
    "limit-operator": "=",
    "Ki, µM": 7.6
  },
  {
    "test-smiles": "O=C(O)c1ccc(COc2cccc(/C=C3\\SC(=S)N(c4ccc([N+](=O)[O-])cc4)C3=O)c2)cc1",
    "limit-operator": ">",
    "Ki, µM": 10
  },
  {
    "test-smiles": "O=C(O)c1ccc(COc2ccc(/C=C3\\SC(=S)N(c4cccc([N+](=O)[O-])c4)C3=O)cc2)cc1",
    "limit-operator": "=",
    "Ki, µM": 9.6
  },
  {
    "test-smiles": "Cc1ccc(N2C(=O)/C(=C/c3ccc(OCc4ccc(C(=O)O)cc4)cc3)SC2=S)cc1",
    "limit-operator": ">",
    "Ki, µM": 10
  },
  {
    "test-smiles": "COc1ccccc1N1C(=O)/C(=C/c2ccc(OCC(=O)Nc3ccc(C(=O)O)cc3)cc2)SC1=S",
    "limit-operator": "=",
    "Ki, µM": 10
  }
]
